Quick reference for GI50 among some molecules
System: UO-31
Experiment: NCI tumour cell line growth inhibition, 48 h
Activity calls are given as the source filed them. Cut-off read from the data, not from the text of the source: active = GI50 up to about 1.1 µM and inactive = higher.

Consider the following illustrative entries.
INSERT INTO assay_data (molecule, result) VALUES
  ('CC1OC(OC2C(O[C@@H]3C[C@@H]4CC[C@@H]5[C@H](CC[C@]6(C)[C@@H]7[C@H](C[C@@H]56)O[C@]5(CC[C@@H](C)CO5)[C@H]7C)[C@@]4(C)C[C@H]3O)OC(CO)C(OC3OC(CO)C(O)C(O)C3O)C2O)C(O)C(O)C1O (some centres not stated)', '2.12 µM (inactive)'),
  ('CSCC[C@@H](NC(=O)[C@H](CC(C)C)NC(=O)C(Cc1cnc[nH]1)NC(=O)CNC(=O)[C@@H](NC(=O)[C@H](C)NC(=O)[C@H](Cc1c[nH]c2ccccc12)NC(=O)[C@H](CCC(N)=O)NC(=O)[C@@H](N)CC(N)=O)C(C)C)C(N)=O (some centres not stated)', '> 100 µM (inactive)'),
  ('O=c1oc2ccc(Cl)cc2cc1-c1cn2cc(Cl)ccc2n1', '> 44 µM (inactive)'),
  ('OCCCNCc1ccncc1', '> 100 µM (inactive)'),
  ('O=C(CN1c2ccccc2Sc2ccccc21)n1cnc2ccccc21', '75.9 µM (inactive)'),
  ('COC(=O)[C@H]1C=NN[C@@H]1C(=O)N1[C@H]2CC3CC[C@@]2(CS1(=O)=O)C3(C)C', '> 100 µM (inactive)');

For the next question, use this molecule.
-- ask Checklist item: GI50 tested on UO-31, entry "Cc1nc(O)nc(N/N=C/c2ccc(Cl)cc2)c1C(=O)NC(C)(CO)CO" , value?
-- reply > 100 µM (inactive)

* * *

Overview of reported GI50 across a group of molecules:
Tested on: SNB-75
Experiment: NCI tumour cell line growth inhibition, 48 h
Active and inactive are the calls of the source. No stated cut-off is given here; in the data, active = GI50 up to about 1.1 µM and inactive = higher.

The cases that follow already have their GI50 on record.
INSERT INTO results (molecule, value_type, result) VALUES
  ('CN(C)c1ccc(/C=C2\N=C(N/N=C/c3ccccc3O)NC2=O)cc1', 'GI50', '31.2 µM (inactive)'),
  ('CCOC(=O)NNC(=O)NCc1cccc(CNC(=O)NNC(=O)OCC)c1', 'GI50', '> 100 µM (inactive)'),
  ('CC(C)(C)OC(=O)NCCC(N)=S', 'GI50', '> 100 µM (inactive)'),
  ('C#CCCCCC#CC1CCCC1C1=CC(=O)c2ccccc21 (stereo not given)', 'GI50', '5.45 µM (inactive)'),
  ('CCCCCCCC(=O)OC[n+]1cccc(-c2c(COC(=O)NC(C)C)c(COC(=O)NC(C)C)c3n2CCC3)c1', 'GI50', '> 78 µM (inactive)');

Proceed to the following item.
-- ask Please look up its GI50: "O=P1(Cc2ccccc2)N(Cc2ccccc2)[C@@H]2CCCC[C@H]2N1Cc1ccccc1"
-- reply 6.79 µM (inactive)

* * *

Test system: HL-60
Assay: NCI tumour cell line growth inhibition, 48 h
Calls of active or inactive are those of the source. No stated cut-off is given here; in the data, active = GI50 up to about 1.1 µM and inactive = higher.
Respond only with the outcome that fits, drawn from TRUE (active), FALSE (inactive)

As a guide, the following entries are already answered.
INSERT INTO measurements (compound, class_label) VALUES
  ('C=C(COC(=O)C(C)C)[C@H]1Oc2ccc(C(C)=O)cc2[C@@H]1OC(=O)C(C)C', 'FALSE'),
  ('CCCCCCCCCCOC1C(C(C)OCCCN(C)C)OC2OC3(CCCCC3)OC21 (centres undefined)', 'FALSE'),
  ('CCOC(=O)NNC(=O)NCc1cccc(CNC(=O)NNC(=O)OCC)c1', 'FALSE'),
  ('COc1ccc(OC)c2c(C(C)=O)cccc12', 'FALSE'),
  ('CN(C)c1nc(N(C)c2ccccc2)[s+]s1', 'FALSE');

-- ask Record request — test call for "O=C(CN1c2ccccc2Sc2ccccc21)n1cnc2ccccc21"
-- reply FALSE

-- ask # outcome recorded in this test, key = C=C1CC2(C[C@@H](c3ccccc3)O[C@@H](c3ccccc3)C2)OC1=O (some centres undefined)
-- reply TRUE

-- ask // param item: "O=P1(Cc2ccccc2)N(Cc2ccccc2)[C@@H]2CCCC[C@H]2N1Cc1ccccc1" ; yields the recorded call
-- reply FALSE

-- ask Recorded test call requested for "CCCCCCCC(=O)OC[n+]1cccc(-c2c(COC(=O)NC(C)C)c(COC(=O)NC(C)C)c3n2CCC3)c1"
-- reply FALSE

-- ask # outcome recorded in this test, key = "CC1=C(Br)C(=O)c2c(O)ccc(O)c2C1=O"
-- reply TRUE

-- ask // return assay outcome for "CC1(C)S[C@@H]2[C@H](NC(=O)C3(N)CCCCC3)C(=O)N2[C@H]1C(=O)O"
-- reply FALSE

-- ask Could you please tell me the result logged for COc1ccc(N[S+]([O-])C2CCCCC2)cc1 (centres undefined) in this assay?
-- reply FALSE

-- ask Any idea what this test logged for "C#CC[C@]12CC(=O)CC[C@H]1CC(=O)C2" ?
-- reply FALSE

-- ask Called result for "CCOC(=O)c1nc2cc(N3CCOCC3)c(F)cc2[nH]c1=O"
-- reply FALSE

-- ask Which outcome was assigned to "CCC(=O)/C=C/c1ccccc1" in this test?
-- reply FALSE

-- ask For this compound, state the assay outcome: "N/C(=N\Nc1cccc(Cl)c1)c1cccnc1"
-- reply FALSE
